# FACS Cell Binding (Fold Above Background) annotations
# target or system: T1, mouse PRLR on HEK293 cells (mouse, UniProt Q08501 20-608)
# T1 construct: whole, on cells; also called mPRLR; HEK293/mPRLR
# T1 sequence (looked up): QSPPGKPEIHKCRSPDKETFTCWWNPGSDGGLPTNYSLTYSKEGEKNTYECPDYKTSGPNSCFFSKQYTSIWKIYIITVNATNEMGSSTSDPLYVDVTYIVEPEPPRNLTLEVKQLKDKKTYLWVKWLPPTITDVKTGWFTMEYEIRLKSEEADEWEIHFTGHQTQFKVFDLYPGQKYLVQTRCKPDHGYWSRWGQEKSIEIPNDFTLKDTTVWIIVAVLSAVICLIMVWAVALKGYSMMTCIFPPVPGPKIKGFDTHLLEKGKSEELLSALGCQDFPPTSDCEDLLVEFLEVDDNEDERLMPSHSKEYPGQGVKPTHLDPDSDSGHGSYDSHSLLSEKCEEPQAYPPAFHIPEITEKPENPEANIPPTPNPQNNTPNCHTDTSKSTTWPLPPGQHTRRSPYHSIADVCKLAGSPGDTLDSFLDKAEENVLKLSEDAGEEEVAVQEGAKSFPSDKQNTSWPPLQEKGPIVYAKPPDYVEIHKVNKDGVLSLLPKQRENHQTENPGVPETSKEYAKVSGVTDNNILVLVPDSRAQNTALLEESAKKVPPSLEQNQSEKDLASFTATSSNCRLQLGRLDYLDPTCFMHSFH
# procedure summary: FACS, HEK293/mPRLR cells; also: test concentration or dose not given here
Report the value in fold above background with no unit label.

Reference set, count: 3
binder	observed result
H1H6782P (antibody, human IgG1, V domains shown, human IgG1 Fc (H1H)) VH: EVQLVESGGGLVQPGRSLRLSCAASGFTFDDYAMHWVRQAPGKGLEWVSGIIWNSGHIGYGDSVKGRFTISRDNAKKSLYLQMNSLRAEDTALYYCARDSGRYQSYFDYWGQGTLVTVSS VL: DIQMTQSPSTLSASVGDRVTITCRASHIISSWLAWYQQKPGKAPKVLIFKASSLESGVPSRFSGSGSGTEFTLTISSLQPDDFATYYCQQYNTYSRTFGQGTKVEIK	4
H1H6797P (antibody, human IgG1, V domains shown, human IgG1 Fc (H1H)) VH: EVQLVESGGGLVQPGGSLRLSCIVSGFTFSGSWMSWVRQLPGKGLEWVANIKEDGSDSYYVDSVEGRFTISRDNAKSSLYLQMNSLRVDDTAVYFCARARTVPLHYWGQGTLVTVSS VL: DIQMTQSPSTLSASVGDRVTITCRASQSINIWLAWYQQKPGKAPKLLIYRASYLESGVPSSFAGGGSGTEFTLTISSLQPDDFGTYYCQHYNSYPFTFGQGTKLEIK	2
H1H6953N (antibody, human IgG1, V domains shown, also called H1M6953N) VH: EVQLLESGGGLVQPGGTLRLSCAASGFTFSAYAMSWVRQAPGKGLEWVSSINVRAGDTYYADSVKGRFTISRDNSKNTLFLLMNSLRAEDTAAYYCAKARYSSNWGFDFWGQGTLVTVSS VL: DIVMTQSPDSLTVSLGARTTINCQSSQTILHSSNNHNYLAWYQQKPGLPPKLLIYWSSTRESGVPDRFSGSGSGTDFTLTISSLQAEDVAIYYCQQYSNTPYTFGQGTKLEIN	2

Reported FACS Cell Binding (Fold Above Background), binder H1H6790P (antibody, human IgG1, V domains shown, human IgG1 Fc (H1H)) VH: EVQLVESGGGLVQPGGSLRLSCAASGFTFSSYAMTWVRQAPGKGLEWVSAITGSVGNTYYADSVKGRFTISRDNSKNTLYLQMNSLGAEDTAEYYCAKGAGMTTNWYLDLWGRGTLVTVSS VL: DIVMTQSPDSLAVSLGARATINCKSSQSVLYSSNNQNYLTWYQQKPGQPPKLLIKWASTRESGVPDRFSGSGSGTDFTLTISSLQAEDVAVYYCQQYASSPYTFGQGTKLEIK : ____
1
